For each record, write down the corresponding z-score.
# Experiment Notes: RPMI8226 myeloma cell viability, profiling panel, resazurin fluorescence, basal, 24 h, PK04 Diversity Set (AID 1180);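 further: RPMI8826 multiple myeloma cell line at 5000 cells per well; test concentration not given here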
# Study Conditions: higher = more signal
Just the number, please, no unit attached.

Qu. Sample `C=CCNC(=O)[C@H]1[C@@H]2C(=O)O[C@@H](c3ccccc3)[C@@H](c3ccccc3)N2[C@@H](c2ccccc2OCCO)[C@]12C(=O)N(C(=O)OCCOC)c1ccc(C#CCCO)cc12` — what was its z-score?
Ans. -0.0311

Qu. Sample `C=CCNC(=O)[C@@H]1[C@H]2C(=O)O[C@H](c3ccccc3)[C@H](c3ccccc3)N2[C@H](c2ccc(O)cc2)[C@@]12C(=O)N(C(=O)OCCOC)c1ccc(C#Cc3ccc(OC)cc3)cc12` — what was its z-score?
Ans. 0.804

Qu. Sample `CCCCC(=C=CC[C@H](O)c1cccc(OCCO)c1)CCO` — what was its z-score?
Ans. 0.837

Qu. Sample `C=CC[C@]1(C(=O)N2CCCCC2)COC(c2ccc(OCCCO)cc2)=N1` — what was its z-score?
Ans. 0.909

Qu. Sample `C=CCN1C(=O)[C@@]2(O[C@@H](CCn3cc(CCO)nn3)[C@H]([Si](C)(C)c3ccc(OC)cc3)[C@H]2C)c2cc(N3C(=O)c4cccc5cccc3c45)ccc21` — what was its z-score?
Ans. -6.23

Qu. Sample `O=C1O[C@H](c2ccccc2)[C@H](c2ccccc2)N2[C@H]1[C@@H](C(=O)Nc1nc3ccccc3s1)[C@]1(C(=O)Nc3ccc(C#CCCO)cc31)[C@H]2c1ccccc1OCCO` — what was its z-score?
Ans. -0.914

Qu. Sample `O=C(NC1CC1)[C@@H]1c2ccccc2C(=O)N(Cc2ccccc2C(F)(F)F)[C@H]1c1ccc(CO)cc1` — what was its z-score?
Ans. 1.98

Qu. Sample `CCOC(=O)C[C@H]1[C@H](OC(=O)Cc2ccc3c(c2)OCO3)[C@@H](NC(=O)c2ccc3ccccc3c2)c2cc(OCCCO)ccc2N1C(=O)c1ccc2ccccc2n1` — what was its z-score?
Ans. -0.375

Qu. Sample `O=c1n(-c2ccccc2)c(=O)n2n1CC(COc1ccccc1)=C1[C@@H](CCc3ccccc3)OB(O)C[C@@H]12` — what was its z-score?
Ans. -0.672

Qu. Sample `COCCCN1C(=O)[C@@]2(Cc3ccccc31)c1ccccc1C(=O)N(Cc1ccccc1Cl)[C@H]2c1ccc(CO)cc1` — what was its z-score?
Ans. 0.902

Qu. Sample `COC(=O)C(CC#Cc1ccc2c(c1)[C@]1(C(=O)N2)[C@H](c2ccccc2OCCO)N2[C@H](c3ccccc3)[C@H](c3ccccc3)OC(=O)[C@H]2[C@@H]1C(=O)N1CCCCCCC1)C(=O)OC` — what was its z-score?
Ans. 1.17

Qu. Sample `COCCCNC(=O)[C@@]1(Cc2ccccc2)N=C(c2ccc(OCCCO)cc2)O[C@H]1c1ccccc1N=[N+]=[N-]` — what was its z-score?
Ans. -2.12

Qu. Sample `C=C(COC)/C(=C/C[C@H](OC(C)=O)c1ccc(CO)o1)c1cnc2ccccc2c1` — what was its z-score?
Ans. 0.981

Qu. Sample C#CCN1C(C(=O)OCC)OC[C@H]1c1ccccc1 (some centres undefined) — what was its z-score?
Ans. 0.0912

Qu. Sample `COCCCNC(=O)[C@@]1(CCS(=O)(=O)c2ccccc2)N=C(c2ccc(OCCCO)cc2)O[C@H]1c1ccccc1CN=[N+]=[N-]` — what was its z-score?
Ans. 0.846

Qu. Sample `O=C(O)[C@H]1C[C@H]2C(=O)NCC(=O)N2[C@H]1c1cccc(OCCO)c1` — what was its z-score?
Ans. 0.62

Qu. Sample `C=CCNC(=O)[C@H]1[C@@H]2C(=O)O[C@@H](c3ccccc3)[C@@H](c3ccccc3)N2[C@@H](c2ccc(OCCO)cc2)[C@]12C(=O)Nc1ccc(C#CCCO)cc12` — what was its z-score?
Ans. 1.28

Qu. Sample `C=CCN1C(=O)[C@@]2(O[C@@H](CCO)[C@H]([Si](C)(C)c3ccc(OC)cc3)[C@H]2C)c2cc(N3C(=O)c4cccc5cccc3c45)ccc21` — what was its z-score?
Ans. -6.03

Qu. Sample `COc1ccc(/C=C/C(=O)c2cccc(OCC(=O)OC(C)(C)C)c2)cc1` — what was its z-score?
Ans. 1.76

Qu. Sample CCN(CC)c1ccc(N2CC=CC34O[C@@H]5C=CCOC(=O)[C@@H]5[C@H]3C(=O)N(C(CO)C(C)C)[C@@H]4C2=O)cc1 (some centres undefined) — what was its z-score?
Ans. 0.687

Qu. Sample `COc1c(C)cc(-c2cc3c(c(CCc4ccccc4)n2)[Si](C(C)C)(C(C)C)OC3)cc1C` — what was its z-score?
Ans. 1.37

Qu. Sample `[N-]=[N+]=NCc1ccccc1C[C@]1(C(=O)NCc2ccccc2)N=C(c2ccc(OCCCO)cc2)O[C@H]1c1ccccc1` — what was its z-score?
Ans. -0.29

Qu. Sample `Cc1ccc(S[C@]2(C(=O)NC3CC3)CC(=O)N(Cc3ccccc3C(F)(F)F)[C@@H]2c2ccc(CO)cc2I)cc1` — what was its z-score?
Ans. -1.84

Qu. Sample CN1C=C(C(=O)OCCS(C)(=O)=O)C(C(=O)OCCS(C)(=O)=O)=CC(CCCO)=CC1c1cccs1 (centres undefined) — what was its z-score?
Ans. 0.602

Qu. Sample CC(=O)OC(C/C=C\B1OC(C)(C)C(C)(C)O1)c1ccccc1 (centres undefined) — what was its z-score?
Ans. 0.157

Qu. Sample CC(C)C(CO)N1C(=O)[C@@H]2C3C(=O)OCCC/C=C\[C@H]3OC23C=CCN(C(C)C)C(=O)[C@@H]13 (some centres undefined) — what was its z-score?
Ans. 1.53

Qu. Sample `COCCOC(=O)N1C(=O)[C@@]2(c3cc(C#CCCO)ccc31)[C@H](c1ccccc1OCCO)N1[C@H](c3ccccc3)[C@H](c3ccccc3)OC(=O)[C@H]1[C@@H]2C(=O)NC[C@H](O)c1ccccc1` — what was its z-score?
Ans. 0.433

Qu. Sample `CO[C@H]1O[C@H](CO)[C@@H](OC(=O)CCc2ccccc2)[C@@H]2OC(=O)[C@H](Cc3ccccc3)C/C=C/C[C@@H](Cc3ccccc3)C(=O)O[C@@H]12` — what was its z-score?
Ans. 0.884

Qu. Sample COC(=O)C1=CC(c2ccc(CO)cc2)=CC(c2cccs2)N(C)C=C1C(=O)OC (centres undefined) — what was its z-score?
Ans. 1.05
